Assay: activity coefficient (dimensionless); of the first substance listed, at infinite dilution; xn = mol fraction of the nth substance listed
Settings: 313.15 K; 101.33 kPa; Liquid; Chromatography; x1 = 0
measurement-name: activity coefficient

Cc1ccccc1 [toluene] + CCn1cc[n+](C)c1.CO[PH](=O)[O-]: 6.53
CCCC(C)=O [pentan-2-one] + CO[PH](=O)[O-].Cn1cc[n+](C)c1: 10.6
Cc1cccc(C)c1 [1,3-dimethylbenzene] + CCn1cc[n+](C)c1.CO[PH](=O)[O-]: 18.6
CCCCCCCCCCCCC [tridecane] + CCn1cc[n+](C)c1.CO[PH](=O)[O-]: 2560
ClC(Cl)Cl [trichloromethane] + CO[PH](=O)[O-].Cn1cc[n+](C)c1: 0.39
CCCCCCCCCCCCCC [tetradecane] + CCn1cc[n+](C)c1.CO[PH](=O)[O-]: 3490
CC1CCCCC1 [methylcyclohexane] + CCn1cc[n+](C)c1.CO[PH](=O)[O-]: 211
C1CCCCCC1 [cycloheptane] + CO[PH](=O)[O-].Cn1cc[n+](C)c1: 250
CC1CCCC1 [methylcyclopentane] + CCn1cc[n+](C)c1.CO[PH](=O)[O-]: 76
CCCCCCCCCCCCC [tridecane] + CO[PH](=O)[O-].Cn1cc[n+](C)c1: 2380
Cc1ccccc1 [toluene] + CO[PH](=O)[O-].Cn1cc[n+](C)c1: 11.5
ClC(Cl)Cl [trichloromethane] + CCn1cc[n+](C)c1.CO[PH](=O)[O-]: 0.277
CCCCCCCCCCC [undecane] + CCn1cc[n+](C)c1.CO[PH](=O)[O-]: 1340
CCOCC [diethyl ether] + CCn1cc[n+](C)c1.CO[PH](=O)[O-]: 1.99
C1CCCCC1 [cyclohexane] + CCn1cc[n+](C)c1.CO[PH](=O)[O-]: 89
Cc1ccc(C)cc1 [1,4-dimethylbenzene] + CO[PH](=O)[O-].Cn1cc[n+](C)c1: 23.4
ClC(Cl)(Cl)Cl [tetrachloromethane] + CCn1cc[n+](C)c1.CO[PH](=O)[O-]: 4.38
CC#N [acetonitrile] + CO[PH](=O)[O-].Cn1cc[n+](C)c1: 1.1
